Value source: PubChem BioAssay (NCI)

assay_protocol: NCI Yeast Anticancer Drug Screen. Data for the rad18 strain (AID 177)
test_conditions: S. cerevisiae rad18 mutant growth inhibition; at 11.0 µM; stronger effect = higher value
About 79,000 compounds went through this panel and 15% of them were active in at least one assay; those are over-represented in the sample as a whole.
parameter: growth inhibition (%)
Field format: number, assumed %, no unit text.

Any idea what its growth inhibition is? The compound is CC1CC(C)(C)CC(OCCN2CCCCC2)(c2ccccc2)C1 (configuration not stated)
30

Would you mind doing O/N=C\c1c(O)ccc2ccccc12 as well?
6

Would you mind doing COC(=O)CC1(O)C(/C=C/c2ccccc2)C(C(=O)OC)C(=O)C(C(=O)OC)C1C(=O)OC (configuration not stated) as well?
-4

Would you mind doing CCCC(O)C1CC(C(C)C)CCC1C (configuration not stated) as well?
2

Would you mind doing Cn1c(=O)c2c(nc(N)n2C2OC(CO)C(O)C2O)n(C)c1=O (configuration not stated) as well?
-1

Would you mind doing Nc1nc(N)c2nc(CNc3ccc(C(=O)NC(CCC(=O)O)C(=O)O)cc3F)cnc2n1 (configuration not stated) as well?
35

Would you mind doing Cc1ccc([N+]2=NC(c3ccccc3)=NN(c3ccccc3)C2)cc1 as well?
11

Would you mind doing Cc1cccc[n+]1C1CCc2c(ccc3ccccc23)C1=O (configuration not stated) as well?
2

Would you mind doing CCOC(=O)c1[nH]n(-c2ccccc2)c(=O)c1C=NC(=S)C(N)=S as well?
2

Would you mind doing CC(C)=NOC(=O)Nc1ccc(Cl)cc1 as well?
-39

Would you mind doing CC(C)(C)[Si](C)(C)OCC1CCC(n2cnc3c(NC(=O)c4ccccc4)ncnc32)O1 (configuration not stated) as well?
-1

Would you mind doing CCCCCCCCCCCC(O)S(=O)(=O)O (configuration not stated) as well?
-2
